B1: Pistol ribozyme (parent)
chain: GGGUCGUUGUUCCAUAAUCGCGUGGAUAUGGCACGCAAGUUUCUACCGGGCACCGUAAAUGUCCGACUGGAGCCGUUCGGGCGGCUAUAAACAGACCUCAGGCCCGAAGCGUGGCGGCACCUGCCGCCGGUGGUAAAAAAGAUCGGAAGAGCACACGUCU

Variants of: B1
Assay: aptazyme ON/OFF ratio, guanine; higher = stronger switching; co-transcriptional cleavage with and without guanine
valueType: aptazyme ON/OFF ratio

1) U8C G9U U10C U11G C12A; 1.07
2) U7A U8G G9A U11G C12U C13U; 1.5
3) U7A U8A G9A U11C C12G C13U; 1.09
4) U8C G9C U10G C12A C13U; 1.09
5) U10C U11C C13U; 1.03
6) U7A U8G G9C U10C U11G C12U; 1.03
7) U8C G9C C13G; 1.06
8) U7A U8G G9A U11G C12U C13G; 1.44
9) U7A U8A U10G U11A C12A C13U; 1.7
10) U7A U8G G9C U10A U11G C12G C13A; 1.14
11) U8C G9A U10C U11C C12G C13U; 1.16
12) U8A G9C U11G C13A; 1.15
13) U7G U8C U10A U11C C12G C13U; 1.16
14) U7C U8G G9C U11G; 1.2
15) U7A U8G G9A U11G C12U C13A; 1.12
16) U7C U8G U10A C12G C13U; 1.18
